All figures here come from patent US20110135636A1.

Target: T1, recombinant human EGFR extracellular domain with 6xHis (human, UniProt P00533 25-645)
T1 construct: In-house produced; also called 6xHis EGFR ECD; soluble human EGFR ECD; not shown: 6xHis tag
Assay: SPR competition, competitor Ab-10
A collection of binders and their measured % inhibition
All answers are understood in %, so give the number only.

Reference set (3 entries):
{"binder": "antibody 1257 (antibody, human IgG1, kappa, V domains shown, Chimeric IgG1 kappa) VH: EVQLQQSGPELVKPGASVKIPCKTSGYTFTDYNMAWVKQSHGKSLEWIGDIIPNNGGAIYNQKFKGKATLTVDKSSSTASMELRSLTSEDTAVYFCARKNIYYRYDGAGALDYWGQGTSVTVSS VL: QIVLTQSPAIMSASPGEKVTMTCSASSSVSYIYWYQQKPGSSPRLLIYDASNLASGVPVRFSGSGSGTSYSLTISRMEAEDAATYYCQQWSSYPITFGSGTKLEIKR", "% inhibition [%]": 1}
{"binder": "antibody 1347 (antibody, human IgG1, kappa, V domains shown, Chimeric IgG1 kappa) VH: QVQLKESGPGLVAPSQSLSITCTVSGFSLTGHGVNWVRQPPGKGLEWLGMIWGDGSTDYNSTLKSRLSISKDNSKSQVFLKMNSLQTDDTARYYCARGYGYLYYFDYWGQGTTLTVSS VL: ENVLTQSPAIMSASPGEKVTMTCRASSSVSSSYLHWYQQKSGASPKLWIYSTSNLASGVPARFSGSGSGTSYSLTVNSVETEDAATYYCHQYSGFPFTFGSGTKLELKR", "% inhibition [%]": -1}
{"binder": "antibody 1344 (antibody, human IgG1, kappa, V domains shown, Chimeric IgG1 kappa) VH: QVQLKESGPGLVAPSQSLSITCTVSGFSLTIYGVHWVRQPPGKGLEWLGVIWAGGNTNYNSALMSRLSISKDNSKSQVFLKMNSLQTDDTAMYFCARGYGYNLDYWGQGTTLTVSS VL: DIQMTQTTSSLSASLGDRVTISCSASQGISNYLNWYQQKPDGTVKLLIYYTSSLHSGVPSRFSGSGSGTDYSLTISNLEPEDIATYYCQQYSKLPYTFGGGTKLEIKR", "% inhibition [%]": 0}

[Q] Determine from records and report % inhibition for antibody 1320 (antibody, human IgG1, kappa, V domains shown, Chimeric IgG1 kappa) VH: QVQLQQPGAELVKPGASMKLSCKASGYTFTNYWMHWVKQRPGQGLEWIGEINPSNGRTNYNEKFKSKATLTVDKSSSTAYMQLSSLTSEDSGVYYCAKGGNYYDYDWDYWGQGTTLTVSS VL: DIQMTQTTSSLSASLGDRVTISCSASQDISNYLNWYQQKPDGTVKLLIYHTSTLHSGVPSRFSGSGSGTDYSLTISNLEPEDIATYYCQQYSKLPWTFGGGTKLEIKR
[A] -2
